# Measured Target: Transcription factor Sp1 (Homo sapiens) (UniProt P08047)
# Sequence (P08047 whole entry, looked up): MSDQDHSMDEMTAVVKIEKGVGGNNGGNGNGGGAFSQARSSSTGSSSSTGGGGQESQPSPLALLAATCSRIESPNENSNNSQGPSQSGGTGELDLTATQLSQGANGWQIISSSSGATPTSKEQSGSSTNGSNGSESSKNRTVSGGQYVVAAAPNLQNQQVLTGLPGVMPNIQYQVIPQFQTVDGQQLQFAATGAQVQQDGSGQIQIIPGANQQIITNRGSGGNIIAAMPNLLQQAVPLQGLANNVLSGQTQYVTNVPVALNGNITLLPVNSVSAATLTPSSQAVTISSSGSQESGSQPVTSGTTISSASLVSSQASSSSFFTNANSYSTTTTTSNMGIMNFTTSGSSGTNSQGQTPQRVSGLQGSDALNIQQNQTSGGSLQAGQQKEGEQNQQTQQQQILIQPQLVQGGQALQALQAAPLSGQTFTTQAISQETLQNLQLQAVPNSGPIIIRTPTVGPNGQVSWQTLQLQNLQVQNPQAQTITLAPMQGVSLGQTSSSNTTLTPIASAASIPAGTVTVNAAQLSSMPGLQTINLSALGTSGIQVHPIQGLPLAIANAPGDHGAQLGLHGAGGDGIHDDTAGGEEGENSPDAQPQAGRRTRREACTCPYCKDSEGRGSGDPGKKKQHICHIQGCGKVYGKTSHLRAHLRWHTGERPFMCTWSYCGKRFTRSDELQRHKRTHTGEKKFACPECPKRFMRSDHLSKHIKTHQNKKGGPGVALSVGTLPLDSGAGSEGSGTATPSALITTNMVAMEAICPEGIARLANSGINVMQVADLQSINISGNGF
# Test Description: ATG_Sp1_CIS: Attagene CIS-FACTORIAL HepG2 Assay for human Specificity Protein 1 (Sp1) (AID 2282961)
# Run Conditions: HepG2 Sp1 cis-reporter transcription, actives raise or lower the signal
Activity calls are given as the source filed them. The calls were made as follows: active = hit-call score of the fitted dose curve at least 0.9, where 1 is the maximum; inactive = score below 0.9.
// allowed return values: active, inactive

Prompt line: Which outcome was assigned to CC(=O)c1ccc2ccccc2c1 in this test?
Response line: inactive

Prompt line: Moving on to the next compound: CC(=O)OC/C=C(C)/C=C/C=C(C)/C=C/C1=C(C)CCCC1(C)C
Response line: active

Prompt line: Moving on to the next compound: CCCc1ccc(O)cc1
Response line: inactive

Prompt line: Moving on to the next compound: CCCCCC1C(=O)CCC1CC(=O)OC (configuration not stated)
Response line: inactive

Prompt line: Moving on to the next compound: CC(C)=CCCC(C)=CC(=O)O
Response line: inactive

Prompt line: Moving on to the next compound: C[C@]12CC[C@@H]3c4ccc(O)cc4CC[C@H]3[C@@H]1CC[C@@H]2O
Response line: inactive

Prompt line: Moving on to the next compound: CN(C)C
Response line: inactive

Prompt line: Moving on to the next compound: CC(=N[Si](C)(C)C)O[Si](C)(C)C
Response line: inactive

Prompt line: Moving on to the next compound: CCC(=O)OC(C)(C)C1CC=C(C)CC1 (configuration not stated)
Response line: inactive

Prompt line: Moving on to the next compound: CCCCCCCC(=O)N(C)C
Response line: inactive

Prompt line: Moving on to the next compound: CC(CO)(CO)[N+](=O)[O-]
Response line: inactive

Prompt line: Moving on to the next compound: CCCCCCCCCCCCCCCCCC(=O)OCCCCCCCCCCCCCC(C)C
Response line: inactive

Prompt line: Moving on to the next compound: CCCCN(CCO)CCO
Response line: inactive

Prompt line: Moving on to the next compound: CC1=CCC(=C(C)C)CC1
Response line: inactive

Prompt line: Moving on to the next compound: O=C1CCC(=O)N1
Response line: inactive

Prompt line: Moving on to the next compound: Nc1ccc(N)c([N+](=O)[O-])c1
Response line: inactive

Prompt line: Moving on to the next compound: CCCCCCC(C)O (configuration not stated)
Response line: inactive

Prompt line: Moving on to the next compound: CC/C=C\C#N
Response line: inactive

Prompt line: Moving on to the next compound: CC(C)(CO)CO
Response line: inactive

Prompt line: Moving on to the next compound: NC(N)=NC(N)=NCCc1ccccc1
Response line: inactive

Prompt line: Moving on to the next compound: CCCCCC(=O)O[C@]1(C(C)=O)CC[C@H]2[C@@H]3CCC4=CC(=O)CC[C@]4(C)[C@H]3CC[C@@]21C
Response line: inactive

Prompt line: Moving on to the next compound: [Cl][Dy]([Cl])[Cl]
Response line: inactive

Prompt line: Moving on to the next compound: Cc1cc(O)c2c(c1)C(=O)c1cc(O)cc(O)c1C2=O
Response line: active

Prompt line: Moving on to the next compound: Cc1cccc(O)c1
Response line: inactive

Prompt line: Moving on to the next compound: CC(C)(O)C(=O)c1ccc(OCCO)cc1
Response line: inactive

Prompt line: Moving on to the next compound: CCCCC1CCCCC(=O)O1 (configuration not stated)
Response line: inactive

Prompt line: Moving on to the next compound: Nc1ccc(O)c(N)c1
Response line: inactive

Prompt line: Moving on to the next compound: C=C(C)C(N)=O
Response line: inactive

Prompt line: Moving on to the next compound: NCCN1CCNCC1
Response line: inactive

Prompt line: Moving on to the next compound: CC1(C)CC(=O)CC(C)(C)N1
Response line: inactive

Prompt line: Moving on to the next compound: CC(=O)CCc1ccc(O)cc1
Response line: inactive

Prompt line: Moving on to the next compound: C=CCOCC(O)CO (configuration not stated)
Response line: inactive
